system: biotinyl-Phe-oxazolone; assay: self-aminoacylation, catalytic enhancement (BFO) (fold over background); higher = more active; k-Seq, kA / k0A0; sequences stand for … in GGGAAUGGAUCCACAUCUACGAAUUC…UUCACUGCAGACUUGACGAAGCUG
Fewer inactive variants are shown than the library holds.
Label Met when self-aminoacylation is at or above 2; otherwise label Not met.

> print(dat)
                                biosequence    label
1  ACACACUUCAAGUAAUCGGUC [Fam1B.1 aminoacylation ribozyme variant]      Met
2  AUUCACUUAGGUCAUCGAGUG [Fam2.2 aminoacylation ribozyme variant]      Met
3  CUACUUCAAACAAGCGCUCUG [Fam1A.1 aminoacylation ribozyme variant]  Not met

Threshold query (self-aminoacylation >= 2) on CUACUUGAAACAAUCGGGCUG [Fam1A.1 aminoacylation ribozyme variant]
Not met

Dear colleague, could you confirm whether UAGUUUGCGAAUAGUCGCAAG [Fam3.1 aminoacylation ribozyme variant] has self-aminoacylation at or above 2?
Met

Form field: self-aminoacylation at least 2? Entry: CUACUUCAAACAAUCGGUCGA [Fam1A.1 aminoacylation ribozyme variant]
Met

For this sequence, is measured self-aminoacylation 2 or higher? CUACCUCAAACAAUCGGACUG [Fam1A.1 aminoacylation ribozyme variant]
Not met

Has AUUAACCUAGGUCCUCGGGUG [Fam2.2 aminoacylation ribozyme variant] a recorded self-aminoacylation greater than or equal to 2?
Met

Hey, just so you know, these numbers are from the supplement of paper PMC9233669.
